# Test system: ATXN3 transcripts containing exon 4 (E4E5)
# assay text: ATXN3 Quantitative Splicing Assay (qPCR, E4E5 primers/probe)
# Format: cell-based
# assay context: Homo sapiens; SK-N-MC cells, 24 h treatment, 30 μM to 0.6 nM; read-out: ATXN3 Potency - Splicing E4E5 IC50
pIC50: −log10 of the molar value.
result type: pIC50

ATXN3 transcripts containing exon 4 (E4E5) assay, compound `N[C@@H](CF)Cc1cc2c(NCc3ccco3)nc(Cl)nn2c1Br` , recorded pIC50 = 7.00 to 11.00

Given the compound `N[C@@H](COC(F)F)Cc1cc2c(NCc3ccco3)nc(Cl)nn2c1Cl` and test system ATXN3 transcripts containing exon 4 (E4E5), the measured pIC50 is 6.30 to 7.00

Query [2H]C([2H])([2H])OCC(N)Cc1cc2c(NCc3ccco3)nc(Cl)nn2c1Br (stereo not drawn) on ATXN3 transcripts containing exon 4 (E4E5); pIC50 returned: 6.30 to 7.00

----------
The molecules listed here are annotated with their IC50.
# Test system: ATXN3 transcripts containing exon 4 (E4E5)
# assay text: ATXN3 Quantitative Splicing Assay (qPCR, E4E5 primers/probe)
# Assay type: cell-based
# assay context: Homo sapiens; SK-N-MC cells, 24 h treatment, 30 μM to 0.6 nM; read-out: ATXN3 Potency - Splicing E4E5 IC50

[[record]]
smiles_data = "C[C@H](N)Cc1cc2c(NCc3ccco3)nc(Cl)nn2c1Br"
reported_result = "101 to 500 nM"

[[record]]
smiles_data = "N[C@@H](CF)Cc1cc2c(NCc3ccco3)nc(Cl)nn2c1Cl"
reported_result = "0.01 to 100 nM"

[[record]]
smiles_data = "C[C@H](F)[C@H](N)Cc1cc2c(NCc3ccco3)nc(Cl)nn2c1Br"
reported_result = "0.01 to 100 nM"

[[record]]
smiles_data = "C[C@H](N)Cc1cc2c(NCc3ccco3)nc(Cl)nn2c1Cl"
reported_result = "0.01 to 100 nM"

[[record]]
smiles_data = "COC[C@H](N)Cc1cc2c(NCc3ccco3)nc(Cl)nn2c1Br"
reported_result = "101 to 500 nM"


// assay ATXN3 transcripts containing exon 4 (E4E5), entry `COC[C@H](N)Cc1cc2c(NCc3ccco3)nc(Cl)nn2c1Cl` , IC50 value = 101 to 500 nM

The measured values listed here are drawn from patent US20260224583A1.
